Attribute: pEC50
- System Under Test: T1, HD49 (huntingtin exon 1 protein with 49 polyQ repeats after cleavage of the GST tag; aggregation reaction) (human, UniProt P42858 1-88)
- T1 chain: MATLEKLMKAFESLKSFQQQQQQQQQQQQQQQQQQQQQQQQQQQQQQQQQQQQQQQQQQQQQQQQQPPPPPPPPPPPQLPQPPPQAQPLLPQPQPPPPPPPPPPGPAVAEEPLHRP
- Procedure Text: ELISA
Here pEC50 is given on a logarithmic scale as minus log10 of the concentration in mol/L.

Binder	pEC50
NI-302.18A1 (antibody, V domains shown) VH: QLQLQESGPGLVKPSEALSLTCTVSGGSITTDYYYWGWIRQSPGKGLEWVGTIYFGGATYYNPSLRNRVSISVDTSNTRLSLRLISLSAADTAVYYCARVGYLDRSGLLVGQGTLVTVSS VL: EIVLTQSPLSVPVTPGEPASISCRSSQSLLHNNGYNYLDWYLKKPGQSPQLLIYLGSTRASGVPDRFSASGSGTDFTLEISRVEAEDVGVYYCMQALQTPPTFGRGTKVEIK	10.52
NI-302.78H12 (antibody, V domains shown) VH: QVQLQESGPGLVKPSETLSLTCLVSSYSISNGYYWGWIRQPPGKGLEWIGSIYHNGNTYYNPSLKSRVIISVDTSKNQFSLKLRSVTAADTAVYYCAMPSATYYYGSGTQFHAFDVWGQGTTVTVSS VL: QSALTQPRSVSGSPGQSVTISCTGTSRDVGNYNYVSWYQQHPGEVPKLIIYDVSERPSGVPDRFSGSKSGNTASLTISGLQAEDEADYYCCSYAGSYTFEVFGGGTKLTVL	8.80
NI-302.46C9 (antibody, V domains shown) VH: QVQLQESGPGLVKPSQTLSLTCTVSGASVSSGAYYWSWIRQPAGKRLEWIGRVYPTWSTNYNPSLESRVTISLDTSNNQFSLKLTSLTAADTAVYYCAREAPGDYDAAPLAYWGQGTLVTVSS VL: DIQMTQSPSSLSASVGDRVTITCRASQYISHYLNWYRQKPGKAPQLVIYAASSLQSEVPSRFSGSGSGPEFTLTISSLQPEDFATYYCQQSYTTPRTFGQGTKLEIK	10.30
NI-302.11A4 (antibody, V domains shown) VH: EVQLVESGGGLIQPGGSLRLSCAASGFPVSSSYMSWVRQAPGEGLEWVSVLYRDGDTYYADSVQGRFTISRDNSQNTFYLQMNSLKAEDTAVYYCAGDRRSSHYYYGMDVWGQGTTVTVSS VL: EIVMTQSPGTLSLSPGERATLSCRASQSVSSSYFAWYQQKPGQAPRLLIYGTSRRATAIPDRFSGSGSGTDFTLTISRLEPEDFAVYYCQQYGSSWTFGPGTKVEIK	7.72

# ---- query binder ----
Exercise: Find the measured pEC50 of NI-302.3D8 (antibody, V domains shown) VH: EVQLVQSGGGLVQPGGSLRLSCEASGFIFKTYAMSWVRQLPGRGLEWVSAISATGGSTFYAESVKGRLTISRDTAKNTVYLQMNNLRAEDTAMYYCAKGSTAVYLFDSWGQGTLVTVSS VL: DIQMTQSPSSLSASVGDRVTLTCRASQDIRNFLAWIQQKPGKPPKSLIYAASTLQSGVPSRFSGSGSGTDFTLTISSLHPEDFATYYCQQFYNYPPTFGQGTKVEIK and report it.
Key: 10.52
